Sourced from paper PMC9217908

biological target: CAT1 (cationic amino acid transporter 1, CAT1/SLC7A1) (Homo sapiens, UniProt P30825); construct: full-length human transporter stably transfected in HEK cells (HEK-CAT1); net uptake against HEK-VC vector control cells; assay: cell-based; set-up: species or system HEK-CAT1 (HEK293 stably transfected); Inhibition of net CAT1-mediated [3H]-ADMA (1 uM) uptake, 2.5 min, scintillation counting, vector control subtracted; conditions: HEK293; ADMA 1 uM as substrate; read-out: % Inhibition of ADMA uptake at 200 µM
Sequence (P30825 whole entry): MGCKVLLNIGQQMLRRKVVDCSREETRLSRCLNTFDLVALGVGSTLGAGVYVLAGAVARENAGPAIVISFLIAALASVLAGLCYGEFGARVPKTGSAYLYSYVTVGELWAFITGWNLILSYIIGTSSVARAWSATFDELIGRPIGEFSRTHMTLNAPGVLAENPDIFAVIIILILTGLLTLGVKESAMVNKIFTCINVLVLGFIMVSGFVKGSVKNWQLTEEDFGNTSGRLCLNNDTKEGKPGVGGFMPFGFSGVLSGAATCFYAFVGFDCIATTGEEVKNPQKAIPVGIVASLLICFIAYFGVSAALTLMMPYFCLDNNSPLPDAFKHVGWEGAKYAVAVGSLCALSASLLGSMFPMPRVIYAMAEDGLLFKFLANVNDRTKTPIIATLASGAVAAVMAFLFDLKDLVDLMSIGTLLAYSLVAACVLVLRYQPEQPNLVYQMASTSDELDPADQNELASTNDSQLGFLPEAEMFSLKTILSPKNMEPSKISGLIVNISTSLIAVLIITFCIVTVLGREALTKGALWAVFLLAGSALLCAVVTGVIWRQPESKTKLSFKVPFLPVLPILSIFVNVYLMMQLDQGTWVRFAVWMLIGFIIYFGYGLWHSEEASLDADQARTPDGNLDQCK
READOUT_KIND: inhibition at 200 µM (%)

> print(dat)
                                   molecule                            assayed.target  observed
1  CN1CCC(=C2c3ccccc3CC(=O)c3sccc32)CC1 [Ketotifen]  CAT1 (cationic amino acid transporter 1, CAT1/SLC7A1) (Homo sapiens, UniProt P30825)       1.4
2  CCOC(=O)C1=C(C)NC(C)=C(C(=O)OC)C1c1cccc(Cl)c1Cl (stereo not drawn) [Felodipine]  CAT1 (cationic amino acid transporter 1, CAT1/SLC7A1) (Homo sapiens, UniProt P30825)       3.6
3  CC(C)NCC(O)COc1ccc(COCCOC(C)C)cc1 (stereo not drawn) [Bisoprolol]  CAT1 (cationic amino acid transporter 1, CAT1/SLC7A1) (Homo sapiens, UniProt P30825)      16.2
4  CCc1oc2ccccc2c1C(=O)c1cc(Br)c(O)c(Br)c1 [Benzbromarone]  CAT1 (cationic amino acid transporter 1, CAT1/SLC7A1) (Homo sapiens, UniProt P30825)     -13.2
5  C[C@]12C=CC(=O)C=C1CC[C@@H]1[C@@H]2C(=O)C[C@@]2(C)[C@H]1CC[C@]2(O)C(=O)CO [Prednisone]  CAT1 (cationic amino acid transporter 1, CAT1/SLC7A1) (Homo sapiens, UniProt P30825)     -16.9
6        CC(=O)Nc1ccc(O)cc1 [Acetaminophen]  CAT1 (cationic amino acid transporter 1, CAT1/SLC7A1) (Homo sapiens, UniProt P30825)      -3.9
7  CC(=O)N[C@@H](CS)C(=O)O [Acetylcysteine]  CAT1 (cationic amino acid transporter 1, CAT1/SLC7A1) (Homo sapiens, UniProt P30825)      -6.1
8  c1ccc([C@H]2CN3CCSC3=N2)cc1 [Levamisole]  CAT1 (cationic amino acid transporter 1, CAT1/SLC7A1) (Homo sapiens, UniProt P30825)     -34.3
9  C[C@]12CCC(=O)C=C1CC[C@@H]1[C@@H]2[C@@H](O)C[C@@]2(C)[C@H]1CC[C@]2(O)C(=O)CO [Hydrocortisone]  CAT1 (cationic amino acid transporter 1, CAT1/SLC7A1) (Homo sapiens, UniProt P30825)      -9.9

---

inhibition at 200 µM listing for selected compounds.
biological target: CAT1 (cationic amino acid transporter 1, CAT1/SLC7A1) (Homo sapiens); construct: full-length human transporter stably transfected in HEK cells (HEK-CAT1); net uptake against HEK-VC vector control cells; assay: cell-based; parameters: species or system HEK-CAT1 (HEK293 stably transfected); Inhibition of net CAT1-mediated [3H]-L-arginine (100 uM) uptake, 5 min, scintillation counting, vector control subtracted; conditions: HEK293; L-arginine 100 uM as substrate; read-out: % Inhibition of L-arginine uptake at 200 µM

COMPOUND	ASSAYED_TARGET	UNITS_TEXT	inhibition at 200 µM
Nc1ccc(S(=O)(=O)c2ccc(N)cc2)cc1	CAT1 (cationic amino acid transporter 1, CAT1/SLC7A1) (Homo sapiens)	%	-27.2
Nc1nc(N)c2nc(-c3ccccc3)c(N)nc2n1	CAT1 (cationic amino acid transporter 1, CAT1/SLC7A1) (Homo sapiens)	%	16.7
CN(C)CCCN1c2ccccc2CCc2ccc(Cl)cc21	CAT1 (cationic amino acid transporter 1, CAT1/SLC7A1) (Homo sapiens)	%	-12.8
CCCCNc1cc(C(=O)O)cc(S(N)(=O)=O)c1Oc1ccccc1 [Bumetanide]	CAT1 (cationic amino acid transporter 1, CAT1/SLC7A1) (Homo sapiens)	%	-10.1
CC[C@H]1OC(=O)[C@H](C)[C@@H](O[C@H]2C[C@@](C)(OC)[C@@H](O)[C@H](C)O2)[C@H](C)[C@@H](O[C@@H]2O[C@H](C)C[C@H](N(C)C)[C@H]2O)[C@](C)(O)C[C@@H](C)CN(C)[C@H](C)[C@@H](O)[C@]1(C)O	CAT1 (cationic amino acid transporter 1, CAT1/SLC7A1) (Homo sapiens)	%	16.7
CN(C)C(=O)C(CCN1CCC(O)(c2ccc(Cl)cc2)CC1)(c1ccccc1)c1ccccc1 [Loperamide]	CAT1 (cationic amino acid transporter 1, CAT1/SLC7A1) (Homo sapiens)	%	-3.6
NC12CC3CC(CC(C3)C1)C2	CAT1 (cationic amino acid transporter 1, CAT1/SLC7A1) (Homo sapiens)	%	-76
NC(=O)N1c2ccccc2C=Cc2ccccc21 [Carbamazepine]	CAT1 (cationic amino acid transporter 1, CAT1/SLC7A1) (Homo sapiens)	%	0.7
CCOc1nc2cccc(C(=O)O)c2n1Cc1ccc(-c2ccccc2-c2nnn[nH]2)cc1	CAT1 (cationic amino acid transporter 1, CAT1/SLC7A1) (Homo sapiens)	%	-18.8
CC1(C)S[C@@H]2[C@H](NC(=O)[C@H](N)c3ccccc3)C(=O)N2[C@H]1C(=O)O	CAT1 (cationic amino acid transporter 1, CAT1/SLC7A1) (Homo sapiens)	%	6.7
COC(=O)[C@H]1[C@H]2C[C@@H]3c4[nH]c5cc(OC)ccc5c4CCN3C[C@H]2C[C@@H](OC(=O)c2cc(OC)c(OC)c(OC)c2)[C@@H]1OC	CAT1 (cationic amino acid transporter 1, CAT1/SLC7A1) (Homo sapiens)	%	5.2
CN(C)CCC=C1c2ccccc2CCc2ccccc21	CAT1 (cationic amino acid transporter 1, CAT1/SLC7A1) (Homo sapiens)	%	26.9
NCCCC[C@H](N[C@@H](CCc1ccccc1)C(=O)O)C(=O)N1CCC[C@H]1C(=O)O	CAT1 (cationic amino acid transporter 1, CAT1/SLC7A1) (Homo sapiens)	%	-12.6
CC12CC3CC(C)(C1)CC(N)(C3)C2 [Memantine]	CAT1 (cationic amino acid transporter 1, CAT1/SLC7A1) (Homo sapiens)	%	-21.7
CN(Cc1cnc2nc(N)nc(N)c2n1)c1ccc(C(=O)N[C@@H](CCC(=O)O)C(=O)O)cc1 [Methotrexate]	CAT1 (cationic amino acid transporter 1, CAT1/SLC7A1) (Homo sapiens)	%	-7.1
COCCc1ccc(OCC(O)CNC(C)C)cc1 (stereo not shown)	CAT1 (cationic amino acid transporter 1, CAT1/SLC7A1) (Homo sapiens)	%	1.3
COc1cc(Cc2cnc(N)nc2N)cc(OC)c1OC	CAT1 (cationic amino acid transporter 1, CAT1/SLC7A1) (Homo sapiens)	%	-16.3
CC(C)NCC(O)COc1ccc(COCCOC(C)C)cc1 (stereo not shown)	CAT1 (cationic amino acid transporter 1, CAT1/SLC7A1) (Homo sapiens)	%	-17.2
CC(C)NCC(O)COc1cccc2ccccc12 (stereo not shown)	CAT1 (cationic amino acid transporter 1, CAT1/SLC7A1) (Homo sapiens)	%	-1.1
